The following binders are shown together with reported pIC50 values.
target: full-length beta-Catenin (Uniprot ID P35222) (Homo sapiens (Human)) (UniProt P35222); experiment: fluorescence polarization competition; full-length beta-catenin with 5FAM-labeled TCF4 (residues 10-53) probe as competitor
Sequence (P35222 whole entry, the tested form may be a part): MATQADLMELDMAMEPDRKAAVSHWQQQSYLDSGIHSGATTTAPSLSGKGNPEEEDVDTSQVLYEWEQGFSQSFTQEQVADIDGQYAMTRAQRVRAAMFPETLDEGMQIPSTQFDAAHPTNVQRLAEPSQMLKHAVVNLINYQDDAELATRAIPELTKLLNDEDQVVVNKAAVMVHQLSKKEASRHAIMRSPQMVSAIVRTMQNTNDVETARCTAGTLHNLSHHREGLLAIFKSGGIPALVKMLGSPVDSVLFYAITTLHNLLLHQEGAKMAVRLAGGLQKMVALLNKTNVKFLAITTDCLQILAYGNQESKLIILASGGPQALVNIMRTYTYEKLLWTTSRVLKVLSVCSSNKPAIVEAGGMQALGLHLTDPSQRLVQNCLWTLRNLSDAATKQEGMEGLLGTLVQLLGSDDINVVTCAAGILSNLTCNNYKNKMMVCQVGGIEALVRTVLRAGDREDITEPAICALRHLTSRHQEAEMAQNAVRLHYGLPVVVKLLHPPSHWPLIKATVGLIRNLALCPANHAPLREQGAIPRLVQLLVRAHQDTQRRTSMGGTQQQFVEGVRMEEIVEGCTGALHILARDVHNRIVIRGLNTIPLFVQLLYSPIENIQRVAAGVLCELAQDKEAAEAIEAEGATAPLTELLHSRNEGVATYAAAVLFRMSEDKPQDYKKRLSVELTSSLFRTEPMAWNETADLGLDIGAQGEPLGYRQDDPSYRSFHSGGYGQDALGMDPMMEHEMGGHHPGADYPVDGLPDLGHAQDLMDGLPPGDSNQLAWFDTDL
pIC50: −log10 of the molar value. Starred links: 1 amine or outer side, 2 acyl side, 3 side chain; linkers in the order of their positions; H or OH if unused. Positions of bridges follow the written chain, without caps; N, C: chain ends. Non-standard residues stand in square brackets, D forms with d. Primed or numbered codes have the meaning given here. SeN″ = (S)-5-(((allyloxy)carbonyl)(methyl)amino)-2-amino-2-methylpentanoic acid (stapling residue), C=CCOC(=O)N(C)CCC[C@](C)(N[*:1])C(=O)[*:2]; B5(4) = 2,2-bis(4-pentenyl)glycine = 2-amino-2-(pent-4-en-1-yl)hept-6-enoic acid (stitching residue), C=CCCCC(CCCC=C)(N[*:1])C(=O)[*:2]; TfeGA = (S)-2-amino-3-((carboxymethyl)(2,2,2-trifluoroethyl)amino)propanoic acid, O=C([C@H](CN(CC(=O)[*:3])CC(F)(F)F)N[*:1])[*:2]; B5(3) = 2,2-bis(4-pentenyl)glycine (stitching residue), C=CCCCC(CCCC=C)(N[*:1])C(=O)[*:2]; B5 = 2-amino-2-(pent-4-en-1-yl)hept-6-enoic acid, C=CCCCC(CCCC=C)(N[*:1])C(=O)[*:2]; Phe(3-F) = N[C@@H](Cc1cccc(F)c1)C(=O)O; Phe(3-Me) = Cc1cccc(C[C@H](N)C(=O)O)c1; Bta = N[C@@H](Cc1csc2ccccc12)C(=O)O; αAllylPro = C=CC[C@@]1(C(=O)O)CCCN1; 2Pal = N[C@@H](Cc1ccccn1)C(=O)O; 2Thi = N[C@@H](Cc1cccs1)C(=O)O; S8 = C=CCCCCCC[C@](C)(N)C(=O)O

Binder: Ac-[αAllylPro]DA[B5(4)]D[2Thi]AAFV[S8][Phe(3-F)][Bta]Q-NH2 (staple 1-4, 4-11) [I-402]
pIC50: 5.30
//
Binder: Ac-[αAllylPro]DA[B5(4)]DEAAFV[S8][2Pal][Bta]Q-NH2 (staple 1-4, 4-11; also: later eluting staple isomer) [I-384]
pIC50: 6.75
//
Binder: Ac-[αAllylPro]DA[B5]DEAA[2Pal]V[S8]F[Bta]Q-NH2 (staple 1-4, 4-11; also: earlier eluting staple isomer) [I-386]
pIC50: 5.30
//
Binder: Ac-[αAllylPro]DA[B5(3)]D[TfeGA]AA[Phe(3-Me)]Q[SeN″][Phe(3-F)][Bta]Q-NH2 (staple 1-4, 4-11) [I-405]
pIC50: 5.42
//
Binder: Ac-[αAllylPro]DA[B5(4)]DEAAFV[S8][Phe(3-Me)][Bta]Q-NH2 (staple 1-4, 4-11) [I-395]
pIC50: 5.30
